Sourced from PubChem BioAssay

Method Notes: inhibitors of Chlamydomonas gravitaxis, primary screen, whole organism, Chlamydomonas reinhardtii, WT vs cilia-less mutant, absorbance, 96-well (AID 463189);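 also: 0% = wild type cc124 cells in DMSO and 100% = ciliumless bld1 mutant cells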
Test Settings: OD600 absorbance, 2 days, at 10 µM, stronger effect = higher value
Please provide measured inhibition for the entries that follow.
Field: numeric (%). Do not append units.

Problem: Fill in the blank: the reported inhibition of COc1ccc(OC)c(C2NC(=O)c3sc(=S)n(-c4ccccc4)c3N2)c1 (stereo unspecified) is ____.
Result: -6.25

Problem: Which inhibition value belongs to "Cc1cc(C)nc(NC2=NCC(=O)N2c2ccc(Cl)cc2)n1" ?
Result: -3.81

Problem: Requested field: inhibition. Item: CCOc1nc(SC(C(C)=O)C(=O)Nc2ccccc2)nc(N(C)C)n1 (stereo unspecified)
Result: -7.41

Problem: inhibition for "O=C(NCc1ccco1)c1cnn2c(C(F)(F)F)cc(-c3ccco3)nc12" ?
Result: -15.7

Problem: May I ask what inhibition has been recorded for "CCCCNc1nc2c(c(=O)n(C)c(=O)n2C)n1Cc1cccc(OC)c1" ?
Result: 1.32

Problem: Can you look up the measured inhibition of CCOC(=O)c1cnc(SC2CC(=O)N(c3cccc(OC)c3)C2=O)nc1N (stereo unspecified) for me?
Result: -8.83

Problem: Consider the compound OC(CNCCCN1CCCCC1)COc1ccccc1 (stereo unspecified) and give its measured inhibition.
Result: 5.42

Problem: Looking for the measured inhibition of "CCN(CC)C(=O)CN(C#N)c1nc(NC(C)C)nc(NC(C)C)n1" , can you help?
Result: 31.8

Problem: Name the recorded inhibition for "Fc1ccc2[nH]c3c(N4CCN(Cc5ccc6c(c5)OCO6)CC4)ncnc3c2c1" .
Result: 58.4

Problem: # get_value(readout='inhibition', item= "Cc1ccccc1-c1nn2c(-c3ccccc3)nnc2s1" )
Result: 92.9

Problem: Fill in: inhibition of "CCOc1nc(SCCOc2ccc(C)cc2)nc(N(C)C)n1" is ___
Result: 30.3

---

Method Notes: DUSP6 inhibitors restoring Erk phosphorylation by chemical complementation, primary imaging in DUSP6-transfected HeLa (AID 609)
Test Settings: HeLa MKP-3 transfected, phospho-Erk imaging KS statistic; measured here: nuclear c-Myc green intensity z-score; at 10 µM; cells stimulated with TPA for 15 min
Reported Metric: z-score
Note: the reply should be a number with no unit written.

Problem: Need z-score, item "COc1cccc(Cn2c(NCC(C)C)nc3c2c(=O)n(C)c(=O)n3C)c1"
Result: 0.441

Problem: Give its z-score value. Item: "COc1cccc(CNc2ccc(Br)cn2)c1O"
Result: -0.901

Problem: Given "N/C(CCN1CCCCC1)=N/O" , state its recorded z-score.
Result: -0.291

Problem: Could you tell me which z-score is on file for CC(C)NCC(O)COc1ccc(CCOCC2CC2)cc1 (configuration not stated) ?
Result: 0.261

Problem: # input compound: "COc1ccccc1N=Cc1nc(-c2ccccc2)oc1OC(C)=O" ; wanted: its z-score
Result: -1.18

Problem: So what does the record say about z-score for "O=C(O)c1ccc(OCCn2ccnc2)cc1" ?
Result: -1.02

Problem: Recorded z-score for CC(C)c1nc(NCC2CCCO2)c(C#N)c2c1COC(C)(C)C2 (configuration not stated) , please?
Result: -0.66

Problem: Which z-score value is on record for "COc1cccc(OC)c1-c1nn2c(-c3ccccc3Cl)nnc2s1" ?
Result: -0.0979

Problem: Query (compound): O=C(NC1CCS(=O)(=O)C1)N1CCCCC1 (configuration not stated) ; field requested: z-score
Result: 1.35

Problem: Which z-score is reported for this compound? "CCOC(=O)CSC1=C(C#N)C(=O)NC2(CCCCC2)S1"
Result: 0.989

Problem: Query: z-score; subject: C=CCOC(=O)C(C#N)c1nc2ccccc2nc1N1CCC(C(=O)OCC)CC1 (configuration not stated)
Result: 0.218

Problem: Would you mind telling me what z-score value was observed for Cc1ccc(-c2ccccc2NC(=O)C2C3C=CC(C3)C2C(=O)O)o1 (configuration not stated) ?
Result: -0.671

---

Method Notes: PubChem AID 1714;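 also: raw slope of fluorescence over initial fluorescence between 10 and 20 s after thallium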
Test Settings: HEK293-KCC2 + bumetanide/ouabain, thallium flux FluoZin2; at 10 µM
The other results are listed elsewhere or left out. Inconclusive results are not listed. Active and inactive are the calls of the source.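 How the source made its calls: active means thallium entry rate above the same plate's blocked-transporter control wells by more than 3 SD; inconclusive means the two repeat wells disagree; inactive means the rest.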
Tick one outcome: TRUE (active), FALSE (inactive)

Problem: Check the results log: what was the call for "CC(=O)NC(=S)NNC(=O)c1ccc(Br)cc1" ?
Result: TRUE

Problem: // param item: "O=C(NC(=S)N1CCc2ccccc21)c1ccco1" ; yields the recorded call
Result: TRUE

Problem: Hi, do you know how "CCc1ccc2nc3sc(C(=O)Nc4nnc(CC)s4)c(N)c3cc2c1" came out in this test?
Result: TRUE

Problem: Assay result, entry "Cc1oc(C(N)=O)cc1COc1ccc(C(N)=O)cc1" — outcome?
Result: FALSE

Problem: How did this test come out for CC(C)C1Nc2c(C(=O)O)cccc2C(Nc2ccccc2C(=O)O)C1(C)C (stereo unspecified) ?
Result: FALSE

Problem: Please state the recorded outcome for this compound: "Cc1nc(SCC(=O)N2CCc3ccccc3C2)c2c(C)c(C)sc2n1"
Result: FALSE

Problem: Field: outcome | Entry: COc1ccc(CN2CCCCC2C)cc1OC (stereo unspecified)
Result: FALSE

Problem: For this compound, state the assay outcome: CC1CCCCN1S(=O)(=O)c1ccc(C(=O)Nc2nnc(-c3cccs3)o2)cc1 (stereo unspecified)
Result: TRUE

Problem: Per the records of this test, what outcome belongs to "COc1ccc(C(=O)NC(=S)NNC(=O)c2c(-c3ccccc3)noc2C)cc1" ?
Result: TRUE

Problem: Recorded call for "COCCn1c(C)cc(C(=O)CSc2ncnc3sc4c(c23)CCC4)c1C" ?
Result: TRUE

Problem: For this compound, state the assay outcome: "O=C(COC(=O)c1ccc(Oc2ccccc2)cc1)Nc1nnc(-c2ccccc2)o1"
Result: TRUE

---

Kindly state slope for each of the entries shown.
Target Or System: Alpha-2C adrenergic receptor (Homo sapiens)
Method Notes: modulators of alpha2C/GIRK thallium flux, primary screen, cell-based, HEK293 alpha2C/GIRK1/2 (AID 624);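 also: slope of fluorescence ratio to pre-addition baseline per second over 15 to 24 s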
Test Settings: thallium flux BTC fluorescence, at 10 µM, actives lie on both sides
// response body must contain only the number

Problem: Hi! What's the reported slope for C=C1[C@@H](C)C2[C@H](Cc3ccccc3)NC(=O)[C@]23OC(=O)CC[C@H](O)CCC[C@H](C)C/C=C/[C@H]3[C@@H]1O (some centres not stated) on Alpha-2C adrenergic receptor (Homo sapiens)?
Result: 0.00486

Problem: slope of "O=C(CSc1nnc(-c2ccccc2)c(-c2ccccc2)n1)N1CCOCC1" on Alpha-2C adrenergic receptor (Homo sapiens)?
Result: 0.00498

Problem: Can you look up slope on Alpha-2C adrenergic receptor (Homo sapiens) for "OCCNC1=NCCN1" ?
Result: 0.00539

Problem: Recall the recorded slope for "CC(=O)OCc1c(COC(C)=O)[n+](=O)c2ccccc2n1[O-]" with Alpha-2C adrenergic receptor (Homo sapiens) and state it.
Result: 0.00492

Problem: Lab note: need slope with Alpha-2C adrenergic receptor (Homo sapiens) for entry CC(C)OC(=O)C(CC(=O)O)NCc1ccccc1 (configuration not stated) , please look it up.
Result: 0.00502

Problem: Fill in the recorded slope for this compound, with Alpha-2C adrenergic receptor (Homo sapiens) as test system: "Cn1c(=O)n(CCC(=O)O)c2ccccc21"
Result: 0.00491

Problem: Value wanted: slope (Alpha-2C adrenergic receptor (Homo sapiens)) of entry Cc1cccc(N)c1SC1CCCCC1O (configuration not stated)
Result: 0.00629

---

Method Notes: inhibitors of mutant huntingtin aggregation, primary screen, imaging, exon1htt(103Q)mCFP cells, high-content imaging (AID 483);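 also: compound exposure lasted 3 days before fixation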
Test Settings: exon1htt(103Q)mCFP cell line, aggregate imaging, at 2 µM; stronger effect = higher value
Reported Metric: inhibition of aggregation (%)
Write it as a number; the unit % goes unstated.

Problem: // returns reported inhibition of aggregation for input "NC(N)=NS(=O)(=O)c1ccc(N)cc1"
Result: 9.4

Problem: So what's the measured inhibition of aggregation for this one? "COC(=O)CCC(=O)CN"
Result: 0.3

Problem: So what's the measured inhibition of aggregation for this one? Cc1nc2c(o1)CCc1ccccc1C2O (configuration not stated)
Result: -5

Problem: I would be grateful if you could share the reported inhibition of aggregation for "CCCC(=O)Nc1ncnc2c1ncn2[C@@H]1O[C@@H]2COP(=O)(O)O[C@H]2[C@H]1OC(=O)CCC" .
Result: 14.3

Problem: // inhibition of aggregation lookup, key: "Cn1c(=O)c2c(nc(Br)n2CCSc2ncccn2)n(C)c1=O"
Result: 5.2

Problem: Any idea what its inhibition of aggregation is? The compound is "CCCCC[C@H](O)/C=C/[C@H]1C=CC(=O)[C@@H]1C/C=C\CCCC(=O)O"
Result: 16

Problem: Could you tell me which inhibition of aggregation is on file for "NS(=O)(=O)c1ccc(C(=O)O)cc1" ?
Result: 7.9

Problem: Suppose we examine the compound "N=c1c[n+](N2CCOCC2)[n-]o1" ; what inhibition of aggregation value has been reported?
Result: 4.6

Problem: # lookup: inhibition of aggregation of CCN(CC)CCCN1C(=O)C(=O)/C(=C(/O)c2ccc(C)cc2)C1c1ccccn1 (configuration not stated)
Result: 21

Problem: Fill in: inhibition of aggregation of "CNC[C@H](O)c1cccc(O)c1" is ___
Result: 1.2

Problem: Query: inhibition of aggregation; subject: "CN(C)CCCN1c2ccccc2CCc2ccc(Cl)cc21"
Result: -25.6

Problem: Please look up its inhibition of aggregation: "C=CCn1c(SCC#N)nc2c(c1=O)C(C)(C)Cc1ccccc1-2"
Result: 11.6
